System: SNB-75
protocolNotes: NCI tumour cell line growth inhibition, 48 h
Active and inactive are the calls of the source. Rule as the data show it: active = GI50 up to about 1.1 µM and inactive = higher.
valueType: GI50

input: Sample CC(=O)NC1C(OCc2ccccc2)OC(CO)C(O)C1OC(C)C(=O)N[C@@H](C)C(=O)N[C@H](CCC(=O)NCCNCCNc1c2ccccc2nc2cccc([N+](=O)[O-])c12)C(N)=O (some centres undefined) — what was its GI50?
output: 0.205 µM (active)

input: GET /values?readout=GI50&item= COC(=O)c1nn(C(=N)c2ccc(Cl)cc2)c2c1CCCCC2
output: > 100 µM (inactive)

input: Form field: reported GI50 of c1ccc(/N=C2\C(=N/c3ccccc3)N(C3CCCCC3)/C(=N\C3CCCCC3)N2c2ccccc2)cc1
output: > 100 µM (inactive)

input: What value of GI50 has been recorded for this entry: Cc1c[nH]c(C(=O)O)c1-c1ccc2c(-c3ccccc3)nc3ccccc3n12
output: 17.5 µM (inactive)

input: Please look up its GI50: BrC(c1cccc2ccccc12)c1cccc2ccccc12
output: 13.5 µM (inactive)

input: Suppose we examine the compound COc1ccc2c(c1)/C(=C\c1cccc(/C=C3/C(=O)Nc4ccc(OC)cc43)n1)C(=O)N2 ; what GI50 value has been reported?
output: 19.1 µM (inactive)

input: Endpoint output: GI50 of CN1CC=C(OP(=O)(NCc2ccccc2)N(CCCl)CCCl)CC1 (centres undefined) . Value?
output: 89.3 µM (inactive)

input: Would you kindly share the measured GI50 for NC(=O)c1nc[nH]c1/N=N/SCC(N)C(=O)O (centres undefined) ?
output: 24.3 µM (inactive)

input: Name the reported GI50 value associated with the compound COC(=O)[C@H]1C=C[C@@H](C)n2c(=O)c3cc4ccccc4cc3c(=O)n21
output: 43.6 µM (inactive)
